test: Volume of distribution at steady state in cynomolgus monkey at 1 mg/kg, iv or 1 mg/kg, po; type: ADME, organism-based, Macaca fascicularis; details: in vivo, read-out: Vdss
Experimental Readout: Vd (L/kg)
Provide only the numeric value, understood in L/kg.

Supply Vd value. Item: "CNC[C@H](CC1CCCCC1)NC(=O)N1CCC[C@@H]([C@@H](OCCNC(=O)OC)c2cccc(Cl)c2)C1" 9.8

* * *

test: AUC (0 to t) in rat at 10 mg/kg, po; type: ADME, organism-based, Plasma; parameters: dose 10 mg/kg, route oral; settings: plasma
Experimental Readout: log10 of AUC(0-t) (log10 of the value in ng·h/mL)
On a log10 scale: recorded AUC(0-t), unit ng·h/mL.

Study these solved cases before continuing.
Supply log10 of AUC(0-t) value. Item: "COCCCOc1cc(C[C@@H](C[C@H](N)[C@@H](O)C[C@H](C(=O)NCC(C)(C)C(N)=O)C(C)C)C(C)C)ccc1OC" 1.32

Supply log10 of AUC(0-t) value. Item: "CNC[C@H](CC1CCCCC1)NC(=O)N1CCC[C@@H]([C@@H](OCCNC(=O)OC)c2cccc(Cl)c2)C1" 2.48

Supply log10 of AUC(0-t) value. Item: "CCOCCCO[C@@H](c1ccccc1)[C@@H]1CCCN(C(=O)N[C@H](CNC)CC2CCCCC2)C1" 2.92

Next:
Supply log10 of AUC(0-t) value. Item: "CNC[C@H](CC1CCCCC1)NC(=O)N1CCC[C@@H]([C@@](O)(CCCCOC)c2cccc(Cl)c2)C1" 2.67

Supply log10 of AUC(0-t) value. Item: "CNC[C@H](CC1CCCCC1)NC(=O)N1CCC[C@@H]([C@@](O)(CCCNC(=O)OC)c2cccc(Cl)c2)C1" 1.00

Supply log10 of AUC(0-t) value. Item: "COC(=O)NCCO[C@@H](c1cccc(Cl)c1)[C@@H]1CCCN(C(=O)N[C@H](CN)CC2CCCCC2)C1" 2.30

Supply log10 of AUC(0-t) value. Item: "CNC[C@H](CC1CCCCC1)NC(=O)N1CCC[C@@H]([C@@H](OCCNC(=O)OC)c2cccc(F)c2)C1" 2.58

Origin of values: ChEMBL document CHEMBL1153179
